Target: T1, human parathyroid hormone receptor (PTHR) (human, UniProt Q03431 27-593)
T1 construct: Assayed in membranes of HKRK-B7 cells or of transiently transfected COS-7 cells, or on intact HKRK-B7/HKRK-B64/COS-7 cells; RG = co-transfected with negative-dominant Galpha-s; R0 = receptor alone plus GTPgammaS; also called hPTHR; human PTH receptor
T1 sequence: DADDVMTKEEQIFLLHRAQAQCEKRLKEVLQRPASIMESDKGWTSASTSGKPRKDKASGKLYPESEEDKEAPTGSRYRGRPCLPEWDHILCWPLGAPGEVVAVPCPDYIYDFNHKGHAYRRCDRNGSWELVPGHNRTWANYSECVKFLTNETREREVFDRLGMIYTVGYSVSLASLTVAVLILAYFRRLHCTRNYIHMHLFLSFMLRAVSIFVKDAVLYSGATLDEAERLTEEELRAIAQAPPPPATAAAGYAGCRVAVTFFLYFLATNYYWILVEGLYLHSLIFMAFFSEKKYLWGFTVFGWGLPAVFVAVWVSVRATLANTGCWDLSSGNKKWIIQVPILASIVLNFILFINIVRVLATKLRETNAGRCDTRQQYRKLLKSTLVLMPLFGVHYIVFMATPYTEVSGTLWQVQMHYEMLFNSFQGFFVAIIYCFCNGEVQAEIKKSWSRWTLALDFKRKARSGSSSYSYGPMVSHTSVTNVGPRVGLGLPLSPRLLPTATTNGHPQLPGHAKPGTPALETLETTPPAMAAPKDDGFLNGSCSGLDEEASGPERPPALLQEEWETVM
Experiment: competition vs 125I-[Aib1,3,M]PTH(1-15), COS-7 membranes hPTHR + GsND (RG)
Square brackets hold non-standard residues; d marks the D form. Ends that are not written are not given here. hArg = N=C(N)NCCCC[C@H](N)C(=O)O; Nle = CCCC[C@H](N)C(=O)O; Aib = CC(C)(N)C(=O)O
Quantity kind: pIC50
One number for each entry, as −log10 of the molar value.

Binder	pIC50
[Aib]V[Aib]EIQL[Nle]HQ[hArg]AKWY-NH2 (N-terminus assumed; SMILES CCCC[C@H](NC(=O)[C@H](CC(C)C)NC(=O)[C@H](CCC(N)=O)NC(=O)[C@@H](NC(=O)[C@H](CCC(=O)O)NC(=O)C(C)(C)NC(=O)[C@@H](NC(=O)C(C)(C)N)C(C)C)[C@@H](C)CC)C(=O)N[C@@H](Cc1c[nH]cn1)C(=O)N[C@@H](CCC(N)=O)C(=O)N[C@@H](CCCCNC(=N)N)C(=O)N[C@@H](C)C(=O)N[C@@H](CCCCN)C(=O)N[C@@H](Cc1c[nH]c2ccccc12)C(=O)N[C@@H](Cc1ccc(O)cc1)C(N)=O, also called [Aib^1,3,M]rPTH(1-15)NH2; [Aib^1,3,M]PTH(1-15)) [[Aib^1,3,Nle^8,Gln^10,homoarginine^11,Ala^12,Trp^14,Tyr^15]rPTH(1-15)NH2]	9.13

Give measured pIC50 for every item shown.
1. AVSEIQLMHNLGKHLASVERMQWLRKKLQDVHNF-NH2 (also called r(rat)PTH(1-34)NH2; rat-PTH(1-34)) [rPTH(1-34)NH2]
2. AVSEHQLMHNLGKHLASVERMQWLRKKLQDVHNF-NH2 [[His^5]rPTH(1-34)NH2]
3. SVSEHQLMHNLGKHLNSMERVEWLRKKLQDVHNF-NH2 [[His^5]hPTH(1-34)NH2]

1: 9.47; 2: 9.72; 3: 9.12
